# tgt: Adenosine receptors; A1 & A2 (Rattus norvegicus) (UniProt P29276+P25099+P30543)
# method_summary: Selectivity ratio between A1 and A2-receptors estimated as A2/A1
# Format: protein assay
Listed below: Selectivity ratio values for each entry.

The cases that follow already have their Selectivity ratio on record.
Cc1c(C)n([C@H](C)c2ccccc2)c2nc(-c3cccc(Cl)c3)nc(N)c12; 2140
Cc1c(C)n([C@@H](C)c2ccccc2)c2nc(-c3ccc(Cl)c(Cl)c3)nc(N)c12; > 17
C[C@@H](Cc1ccccc1)n1c2ccccc2c2c(N)nc(-c3ccccc3)nc21; > 94
Cc1c(C)n([C@H](C)c2ccccc2)c2nc(-c3ccccc3Cl)nc(N)c12; 537
Cc1ccc([C@@H](C)n2c3ccccc3c3c(N)nc(-c4ccccc4)nc32)cc1; 1530
Cc1c(C)n([C@@H](C)c2ccccc2)c2nc(-c3cccc(Cl)c3)nc(N)c12; > 62
COc1cccc(-c2nc(N)c3c(C)c(C)n([C@H](C)c4ccccc4)c3n2)c1; > 120
Cc1ccc([C@H](C)n2c3ccccc3c3c(N)nc(-c4ccccc4)nc32)cc1; > 101
Cc1c(C)n([C@H](C)c2ccccc2)c2nc(-c3ccc(Cl)c(Cl)c3)nc(N)c12; > 91
COc1ccc(-c2nc(N)c3c(C)c(C)n([C@H](C)c4ccccc4)c3n2)cc1; > 99

Query compound follows.
Note to self: Selectivity ratio recorded for Cc1c(C)n([C@@H](C)c2ccccc2)c2nc(-c3ccc(Cl)cc3)nc(N)c12 was > 34

###

# method_summary: Solubility in 50 mM TRIS-HCl buffer containing 1% DMSO, pH 7.4
# Format: physicochemical
# condition_label: read-out: S
measured_metric: solubility (µM)

Cc1nc2nc(-c3ccccc3)[nH]c(N[C@H](C)c3ccccc3)c-2c1C; 1.5
C[C@H](c1ccccc1)n1c2ccccc2c2c(N)nc(-c3ccccc3)nc21; 0.48
Cc1c(C)n([C@H](C)c2ccccc2)c2nc(-c3ccc(Cl)cc3)nc(N)c12; 2.2

[A] Cc1c(C)n([C@H](C)c2ccccc2)c2nc(-c3cccc(Cl)c3)nc(N)c12
[B] Cc1c(C)n([C@@H](C)c2ccccc2)c2nc(-c3ccccc3)nc(N)c12
Could you determine which record has the numerically smaller solubility? Candidates: A and B Return value: the label identifying the chosen record. B

###

# method_summary: Partition coefficient (logP)
# Assay type: physicochemical
# condition_label: octanol/water
measured_metric: logP
Just the number, please, no unit after it.

Note to self: logP recorded for Cc1nc2nc(-c3ccccc3)[nH]c(N[C@H](C)c3ccccc3)c-2c1C was 3.5

###

# tgt: Adenosine receptors; A1 & A2 (Rattus norvegicus) (UniProt P29276+P25099+P30543)
# method_summary: Selectivity ratio between A1 and A2-receptors estimated as A2/A1
# Type: protein assay
measured_metric: Selectivity ratio

[a] Cc1c(C)n([C@@H](C)c2ccccc2)c2nc(-c3ccccc3)nc(N)c12
[b] CC(c1ccccc1)n1c2ccccc2c2c(N)ncnc21 (stereo not given)
[c] Cc1c(C)n([C@H](C)c2ccccc2)c2nc(-c3ccccc3)nc(N)c12
// ascending sort on recorded Selectivity ratio Give the labels in the order specified. b, c, a

###

Listed below: pKi values for each entry.
# tgt: Adenosine receptor A2a (Rattus norvegicus)
# Sequence (P30543 whole entry): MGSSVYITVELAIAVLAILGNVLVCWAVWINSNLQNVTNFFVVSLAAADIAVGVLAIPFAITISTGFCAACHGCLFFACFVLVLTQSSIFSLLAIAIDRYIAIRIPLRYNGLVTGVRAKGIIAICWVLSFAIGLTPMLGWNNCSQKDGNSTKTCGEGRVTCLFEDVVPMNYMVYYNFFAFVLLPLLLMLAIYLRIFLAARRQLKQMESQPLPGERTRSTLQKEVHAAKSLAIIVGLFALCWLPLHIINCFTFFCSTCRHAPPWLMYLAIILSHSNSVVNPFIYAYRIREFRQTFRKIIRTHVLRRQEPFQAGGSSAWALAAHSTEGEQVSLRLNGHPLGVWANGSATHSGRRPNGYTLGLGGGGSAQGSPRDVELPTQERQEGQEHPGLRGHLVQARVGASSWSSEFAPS
pKi: −log10 of the molar value.

COc1cccc(-c2nc(N)c3c(C)c(C)n([C@H](C)c4ccccc4)c3n2)c1; < 5.00
CC(c1ccccc1)N1C(=O)C2(CCCC2)c2c(O)ncnc21 (stereo unspecified); 4.05
Cc1c(C)n([C@@H](C)c2ccccc2)c2ncnc(N[C@@H](C)c3ccccc3)c12; < 4.52
C[C@@H](c1ccccc1)n1c2ccccc2c2c(O)nc(-c3ccccc3)nc21; < 4.52
Cc1c(C)n([C@H](C)c2ccccc2)c2nc(-c3ccc(Cl)cc3)nc(O)c12; < 4.52

Query compound follows.
Lab entry: Adenosine receptor A2a (Rattus norvegicus) assay, compound COc1ccc(-c2nc(N)c3c(C)c(C)n([C@H](C)c4ccccc4)c3n2)cc1 , pKi = < 5.00
